molecular target: muscarinic cholinergic receptor; assay: [^3 H]-Cis-methyldioxolane (^3 H-CD) Binding Assay (High Affinity); conditions: rat cerebral cortex, ^3 H-CD 1.0 nM, 25° C., 120 minutes, pH 7.4; high affinity agonist binding
Entries and their measured pKi follow.
On this scale, pKi is minus log10 of a concentration expressed in M (mol/L).

Q: Provide value of pKi for this record tested with muscarinic cholinergic receptor: CCCCCCCCOC(=O)O[C@@H]1CCN(CC#CCN(C)C)C1=O
Ans: 5.98

====

target: muscarinic cholinergic receptor; format: binding, rat; details: rat cerebral cortex, ^3 H-QNB 0.25 nM, 25° C., 120 minutes, pH 7.4
recorded-metric: Ki

>>> result("CS[C@H]1CCN(CC#CCN(C)C)C1=O")
"> 100 µM"
>>> result("CC(C)(C)[Si](C)(C)O[C@H]1CCN(CC#CCn2ccnc2)C1=O")
"> 100 µM"
>>> result("CC(=O)O[C@H]1CCN(CC#CCN(C)CCCCO)C1=O")
"> 100 µM"
>>> result("CC(=O)O[C@H]1CCN(CC#CCN2CCC[C@@H]2CO[Si](C)(C)C(C)(C)C)C1=O")
"> 100 µM"
>>> result("CN(C)CC#CCN1CCC(C)(O)C1=O (racemic) [Racemic-1-[4-Dimethylamino)-2-butynyl]-3-hydroxy-3-methyl-2-pyrrolidinone]")
"> 100 µM"

Q: Ki of CN(CC#CCN1CC[C@@H](O)C1=O)CCCCO on muscarinic cholinergic receptor?
Ans: > 100 µM

Q: muscarinic cholinergic receptor / Ki / CC(=O)O[C@@H]1CCN(CC#CCN(C)CCO)C1=O : value?
Ans: > 100 µM

Q: API: value(readout=Ki, system=muscarinic cholinergic receptor) for record CC(=O)O[C@@H]1CCN(CC#CCN2CCC[C@@H]2CO[Si](C)(C)C(C)(C)C)C1=O
Ans: > 100 µM

Q: muscarinic cholinergic receptor / Ki / CN(C)CC#CCNC(=O)C(F)(F)F : value?
Ans: > 100 µM
